Conditions: in ethyl acetate, 297 K
MEASURED PROPERTY: solubility (mole fraction)
Reply with the value as a number alone.

Query: Report solubility (mole fraction) for O=c1[nH]cc(F)c(=O)[nH]1 please.
Result: 0.00048

* * *

Conditions: in methanol, 306.8 K
MEASURED PROPERTY: solubility (mole fraction)
Reply with the value as a number alone.

Query: Report solubility (mole fraction) for O=c1[nH]cc(F)c(=O)[nH]1 please.
Result: 0.00379

* * *

Details: in acetonitrile, 300.3 K
MEASURED PROPERTY: solubility (mole fraction)
Reply with the value as a number alone.

Query: Report solubility (mole fraction) for O=c1[nH]cc(F)c(=O)[nH]1 please.
Result: 0.00066

* * *

Settings: in isopropanol, 301.3 K
MEASURED PROPERTY: solubility (mole fraction)
Reply with the value as a number alone.

Query: Report solubility (mole fraction) for O=c1[nH]cc(F)c(=O)[nH]1 please.
Result: 0.00147

* * *

Conditions: in ethyl acetate, 320.3 K
MEASURED PROPERTY: solubility (mole fraction)
Reply with the value as a number alone.

Query: Report solubility (mole fraction) for O=c1[nH]cc(F)c(=O)[nH]1 please.
Result: 0.00077

* * *

Conditions: in methanol, 280 K
MEASURED PROPERTY: solubility (mole fraction)

Query: Report solubility (mole fraction) for O=c1[nH]cc(F)c(=O)[nH]1 please.
Result: 0.00165

* * *

Details: in n-propanol, 315.1 K
MEASURED PROPERTY: solubility (mole fraction)
Reply with the value as a number alone.

Query: Report solubility (mole fraction) for O=c1[nH]cc(F)c(=O)[nH]1 please.
Result: 0.00179

* * *

Details: in acetonitrile, 320.2 K
MEASURED PROPERTY: solubility (mole fraction)
Reply with the value as a number alone.

Query: Report solubility (mole fraction) for O=c1[nH]cc(F)c(=O)[nH]1 please.
Result: 0.00121

* * *

Conditions: in n-butanol, 325.8 K
MEASURED PROPERTY: solubility (mole fraction)
Reply with the value as a number alone.

Query: Report solubility (mole fraction) for O=c1[nH]cc(F)c(=O)[nH]1 please.
Result: 0.0026

* * *

Details: in 1,4-dioxane, 306.4 K
MEASURED PROPERTY: solubility (mole fraction)
Reply with the value as a number alone.

Query: Report solubility (mole fraction) for O=c1[nH]cc(F)c(=O)[nH]1 please.
Result: 0.00187

* * *

Details: in ethanol, 322.8 K
MEASURED PROPERTY: solubility (mole fraction)
Reply with the value as a number alone.

Query: Report solubility (mole fraction) for O=c1[nH]cc(F)c(=O)[nH]1 please.
Result: 0.0032

* * *

Conditions: in n-butanol, 306.3 K
MEASURED PROPERTY: solubility (mole fraction)

Query: Report solubility (mole fraction) for O=c1[nH]cc(F)c(=O)[nH]1 please.
Result: 0.00141

* * *

Settings: in ethanol, 291.2 K
MEASURED PROPERTY: solubility (mole fraction)
Reply with the value as a number alone.

Query: Report solubility (mole fraction) for O=c1[nH]cc(F)c(=O)[nH]1 please.
Result: 0.00137

* * *

Settings: in acetonitrile, 306.6 K
MEASURED PROPERTY: solubility (mole fraction)
Reply with the value as a number alone.

Query: Report solubility (mole fraction) for O=c1[nH]cc(F)c(=O)[nH]1 please.
Result: 0.00081
